tested on: PC-3 cells; experiment: Antiproliferative activity, Alamar Blue assay, PC-3 cells; assay type: cell-based, human; conditions: Homo sapiens, PC-3, PC3 cells, Alamar Blue; read-out: PC3 antiproliferative activity pIC50 (converted)
Sorting guide: entries reporting IC50 beneath 5 µM go in the Y pile, the rest go in the N pile.

{"Compound": "C#CCOc1cccc(CC(C)(C#N)c2ccc3cc(CC)c(=O)[nH]c3c2)c1 (centres unmarked)", "Answer label": "Y"}
{"Compound": "C=Cc1cccc(CC(C)(C#N)c2ccc3cc(CC)c(=O)[nH]c3c2)c1 (centres unmarked)", "Answer label": "Y"}
{"Compound": "CCc1cc2cc(OC)c(C(C)(C#N)Cc3ccccc3)cc2[nH]c1=O (centres unmarked)", "Answer label": "N"}
{"Compound": "CCc1cc2ccc([C@@](C)(C#N)Cc3nc(OC)cc(OC)n3)cc2[nH]c1=O (single isomer, unassigned)", "Answer label": "Y"}
{"Compound": "CCc1c(C)c2ccc(C(C)(C#N)Cc3cccc(C#N)c3)cc2[nH]c1=O (centres unmarked)", "Answer label": "Y"}
{"Compound": "CCOc1cccc(CC(C)(C#N)c2ccc3cc(CC)c(=O)[nH]c3c2)c1 (centres unmarked)", "Answer label": "Y"}
{"Compound": "CCc1cc2ccc(C(C)(C#N)Cc3cccc(COC)n3)cc2[nH]c1=O (centres unmarked)", "Answer label": "N"}
{"Compound": "CCc1cc2ccc(C(C)(C#N)Cc3cccc(/C=N/O)c3)cc2[nH]c1=O (centres unmarked)", "Answer label": "Y"}
{"Compound": "CCc1cc2ccc(C(C)(C#N)Cc3cccc(C)n3)cc2[nH]c1=O (centres unmarked)", "Answer label": "Y"}
{"Compound": "CCc1cc2ccc(C(C)(C#N)Cc3cccc(OC[C@@H](O)CO)c3)cc2[nH]c1=O (some centres unmarked)", "Answer label": "N"}
{"Compound": "CCc1cc2ccc(C(C)(C#N)Cc3cccc(CCC#N)c3)cc2[nH]c1=O (centres unmarked)", "Answer label": "Y"}
{"Compound": "CCc1cc2ccc(C(C)(C#N)CNCc3cccc(C#N)c3)cc2[nH]c1=O (centres unmarked)", "Answer label": "N"}
{"Compound": "CCc1cc2ccc(C(C)(C#N)Cc3cc(N(C)C)nc(OC)n3)cc2[nH]c1=O (centres unmarked)", "Answer label": "N"}
{"Compound": "CCc1cc2ccc(C(C)(C#N)Cc3cccc(CN)n3)cc2[nH]c1=O (centres unmarked)", "Answer label": "Y"}

====

Listed here: items and their measured melting point.
Property label: melting point (°C)

{"Molecule": "CCc1cc2ccc(C(C)(C#N)Cc3cccc(-c4ccc[nH]4)c3)cc2[nH]c1=O (stereo not shown) [Compound 176]", "Property label": "melting point", "Unit of measure": "°C", "Qualifier sign": "=", "Data value": 194}
{"Molecule": "CCc1cc2ccc(C(C)(C#N)Cc3cccc(NC(=O)N4CCOCC4)c3)cc2[nH]c1=O (stereo not shown) [Compound 16]", "Property label": "melting point", "Unit of measure": "°C", "Qualifier sign": "=", "Data value": 121}
{"Molecule": "CCc1cc2ccc(C(C)(C#N)Cc3cccc(I)c3)cc2[nH]c1=O (stereo not shown) [Compound 19]", "Property label": "melting point", "Unit of measure": "°C", "Qualifier sign": "=", "Data value": 158}
{"Molecule": "CCc1cc2ccc(C(C)(C#N)Cc3cccc(OCCC#N)c3)cc2[nH]c1=O (stereo not shown) [Compound 195]", "Property label": "melting point", "Unit of measure": "°C", "Qualifier sign": "=", "Data value": 161}
{"Molecule": "CCc1cc2ccc(C(C#N)(Cc3ccccc3)C3CC3)cc2[nH]c1=O (stereo not shown) [Compound 29]", "Property label": "melting point", "Unit of measure": "°C", "Qualifier sign": "=", "Data value": 186}
{"Molecule": "CCc1cc2ccc(C(C)(C#N)Cc3cccc(C#C[Si](C)(C)C)c3)cc2[nH]c1=O (stereo not shown) [Compound 1]", "Property label": "melting point", "Unit of measure": "°C", "Qualifier sign": "=", "Data value": 178}
{"Molecule": "CCc1cc2ccc(C(C#N)(Cc3ccccc3)c3ccc(C#N)cc3)cc2[nH]c1=O (stereo not shown) [Compound 26]", "Property label": "melting point", "Unit of measure": "°C", "Qualifier sign": "=", "Data value": 255}
{"Molecule": "CC(=O)c1cc2ccc(C(C)(C#N)Cc3ccccc3)cc2[nH]c1=O (stereo not shown) [Compound 39]", "Property label": "melting point", "Unit of measure": "°C", "Qualifier sign": "=", "Data value": 194}
{"Molecule": "CCc1cc2ccc(C(C)(C#N)Cc3nc(C#N)cc(OC)n3)cc2[nH]c1=O (single isomer, unassigned) [Compound 204]", "Property label": "melting point", "Unit of measure": "°C", "Qualifier sign": "=", "Data value": 180}
{"Molecule": "CCc1cc2cc(F)c(C(C)(C#N)Cc3cccc(C#N)c3)cc2[nH]c1=O (stereo not shown) [Compound 175]", "Property label": "melting point", "Unit of measure": "°C", "Qualifier sign": "=", "Data value": 202}
{"Molecule": "CCc1c(C)c2ccc(C(C)(C#N)Cc3cccc(C#N)c3)cc2[nH]c1=O (stereo not shown) [Compound 181]", "Property label": "melting point", "Unit of measure": "°C", "Qualifier sign": "=", "Data value": 204}
{"Molecule": "C=Cc1cccc(CC(C)(C#N)c2ccc3cc(CC)c(=O)[nH]c3c2)c1 (stereo not shown) [Compound 172]", "Property label": "melting point", "Unit of measure": "°C", "Qualifier sign": "=", "Data value": 130}
{"Molecule": "CCc1cc2ccc(C(C)(C#N)Cc3cccc(OCc4ccccc4)c3)cc2[nH]c1=O (stereo not shown) [Compound 23]", "Property label": "melting point", "Unit of measure": "°C", "Qualifier sign": "=", "Data value": 150}
{"Molecule": "Cc1cc2ccc(C(C)(C#N)Cc3cccc(C#N)c3)cc2[nH]c1=O (stereo not shown) [Compound 34]", "Property label": "melting point", "Unit of measure": "°C", "Qualifier sign": "=", "Data value": 260}
{"Molecule": "CCc1cc2ccc(C(C)(C#N)Cc3cccc(C#N)c3C)cc2[nH]c1=O (stereo not shown) [Compound 4]", "Property label": "melting point", "Unit of measure": "°C", "Qualifier sign": "=", "Data value": 174}
{"Molecule": "Cc1cc2ccc([C@@](C)(C#N)Cc3cccc(C#N)c3)cc2[nH]c1=O [Compound 35]", "Property label": "melting point", "Unit of measure": "°C", "Qualifier sign": "=", "Data value": 233}
{"Molecule": "CCc1cc2ccc(C(C)(C#N)Cc3nc(Cl)cc(OC)n3)cc2[nH]c1=O (stereo not shown) [Compound 202]", "Property label": "melting point", "Unit of measure": "°C", "Qualifier sign": "=", "Data value": 162}
{"Molecule": "COc1ccccc1-c1nc(CC(C)(C#N)c2ccc3cc(C)c(=O)[nH]c3c2)no1 (stereo not shown) [Compound 33]", "Property label": "melting point", "Unit of measure": "°C", "Qualifier sign": "=", "Data value": 130}
{"Molecule": "CCc1cc2ccc(C(C)(C#N)Cc3cccc(N4CCOCC4)c3)cc2[nH]c1=O (stereo not shown) [Compound 21]", "Property label": "melting point", "Unit of measure": "°C", "Qualifier sign": "=", "Data value": 162}
{"Molecule": "CCc1cc2ccc(C(C)(C#N)Cc3cccc(CCC#N)c3)cc2[nH]c1=O (stereo not shown) [Compound 169]", "Property label": "melting point", "Unit of measure": "°C", "Qualifier sign": "=", "Data value": 149}
{"Molecule": "CCc1cc2ccc([C@](C)(C#N)CN(C)Cc3ccc(C#N)cc3)cc2[nH]c1=O [Compound 190]", "Property label": "melting point", "Unit of measure": "°C", "Qualifier sign": "=", "Data value": 106}
{"Molecule": "CCc1cc2ccc(C(C)(C#N)CN(C)Cc3ccccc3)cc2[nH]c1=O (stereo not shown) [Compound 189]", "Property label": "melting point", "Unit of measure": "°C", "Qualifier sign": "=", "Data value": 136}
{"Molecule": "CCc1cc2ccc(C(C)(C#N)Cc3cccc(COC)n3)cc2[nH]c1=O (stereo not shown) [Compound 216]", "Property label": "melting point", "Unit of measure": "°C", "Qualifier sign": "=", "Data value": 153}
{"Molecule": "CCc1cc2ccc(C(C)(C#N)Cc3nnsc3Cl)cc2[nH]c1=O (stereo not shown) [Compound 42]", "Property label": "melting point", "Unit of measure": "°C", "Qualifier sign": "=", "Data value": 220}
{"Molecule": "CCc1cc2ccc(C(C)(C#N)Cc3cc4ccccc4nn3)cc2[nH]c1=O (stereo not shown) [Compound 238]", "Property label": "melting point", "Unit of measure": "°C", "Qualifier sign": "=", "Data value": 250}
{"Molecule": "CCc1cc2ccc(C(C)(C#N)Cc3cccc(C#Cc4cncn4C)n3)cc2[nH]c1=O (stereo not shown) [Compound 217]", "Property label": "melting point", "Unit of measure": "°C", "Qualifier sign": "=", "Data value": 111}
{"Molecule": "CCc1cc2ccc([C@](C)(C#N)C[C@@H]3CCc4cc(C)ccc4O3)cc2[nH]c1=O [Compound 251]", "Property label": "melting point", "Unit of measure": "°C", "Qualifier sign": "=", "Data value": 192}
{"Molecule": "CCc1cc2ccc(C(C)(C#N)Cc3cccc(C(=O)O)c3)cc2[nH]c1=O (stereo not shown) [Compound 10]", "Property label": "melting point", "Unit of measure": "°C", "Qualifier sign": ">", "Data value": 260}
{"Molecule": "CCc1cc2ccc(C(C)(C#N)Cc3cccc(OCCOC)c3)cc2[nH]c1=O (stereo not shown) [Compound 24]", "Property label": "melting point", "Unit of measure": "°C", "Qualifier sign": "=", "Data value": 134}
{"Molecule": "COc1cc2ccc(C(C)(C#N)Cc3cccc(C#N)n3)cc2[nH]c1=O (stereo not shown) [Compound 218]", "Property label": "melting point", "Unit of measure": "°C", "Qualifier sign": "=", "Data value": 95}
{"Molecule": "CCc1cc2ccc(C(C)(C#N)Cc3cccc(N4CCC(N(C)C)C4)n3)cc2[nH]c1=O (stereo not shown) [Compound 209]", "Property label": "melting point", "Unit of measure": "°C", "Qualifier sign": "=", "Data value": 154}
{"Molecule": "CCc1cc2ccc(C(C)(C#N)Cc3cccc(CO)c3)cc2[nH]c1=O (stereo not shown) [Compound 9]", "Property label": "melting point", "Unit of measure": "°C", "Qualifier sign": "=", "Data value": 182}
{"Molecule": "CCc1cc2ccc(C(C)(C#N)CCCN(C)C(=O)c3ccc(F)cc3)cc2[nH]c1=O (stereo not shown) [Compound 188]", "Property label": "melting point", "Unit of measure": "°C", "Qualifier sign": "=", "Data value": 256}

Source of measurements: patent US8778966B2
